Assay: S16 Schwann cell PMP22 intronic element firefly luciferase assay (AID 624032); note: nearly all actives have a fitted effect of over 30% in size
Details: S16 rat Schwann cells, PMP22 element FLuc, 24 h; series mostly up to 57.5 µM
Inconclusive results are not listed. Active and inactive are the calls of the source. Calls come from the whole dose curve; as a rule, active = well fitted inhibition curve with a large enough effect; inconclusive = small, poorly fitted or top-dose-only effect; inactive = no such curve, though single readings can be large or run the other way.
Labels: t (active), f (inactive)

                                    molecule  cat
 0                       O=S(=O)(O)NC1CCCCC1    f
 1    CCn1cc(C(=O)O)c(=O)c2cnc(N3CCNCC3)nc21    t
 2          COc1cc2[nH]c(=O)[nH]c(=O)c2cc1OC    f
 3           CCCCN(CCCC)CCCOC(=O)c1ccc(N)cc1    f
 4  CCCCc1ncc(/C=C(\Cc2cccs2)C(=O)O)n1Cc1ccc(C(=O)O)cc1    f
 5                   CC(C)(C)C(=O)NCCCC(=O)O    f
 6  COc1ccc2[nH]c(S(=O)Cc3ncc(C)c(OC)c3C)nc2n1 (stereo not given)    f
 7  O=C1OC(OC(=O)c2cccnc2Nc2cccc(C(F)(F)F)c2)c2ccccc21 (stereo not given)    t
 8               CNCCCC1c2ccccc2C=Cc2ccccc21    t
 9    NC(CSCC(=O)O)C(=O)O (stereo not given)    f
10  C[C@@H]1CN(c2c(F)c(F)c3c(=O)c(C(=O)O)cn(C4CC4)c3c2F)C[C@H](C)N1    f
11  CC1=C(/C=C/C(C)=C/C=C/C(C)=C/C(=O)O)C(C)(C)CCC1    f
12              Cc1ncc(COP(=O)(O)O)c(C=O)c1O    f
13  C[C@]12C[C@H](O)[C@H]3[C@@H](CCC4=CC(=O)CC[C@@]43C)[C@@H]1CC[C@@H]2C(=O)CO    f
14           CC1(C)[C@@H]2CC[C@@]1(C)C(=O)C2    t
15       Cc1cccc(Nc2cc(Cl)nc(SCC(=O)O)n2)c1C    f
16               CN(C)CCN(Cc1ccccc1)c1ccccn1    f
17        O=C(O)CN1C(=O)c2cccc3cccc(c23)C1=O    f
18  CN1CCC[C@@H]1Cc1c[nH]c2ccc(CCS(=O)(=O)c3ccccc3)cc12    f
19                      O=c1cc[nH]c(=S)[nH]1    f
20  CSc1ccc2c(c1)C(N1CCN(C)CC1)Cc1ccccc1S2 (stereo not given)    t
21  CC(O)CN(CCN(CC(C)O)CC(C)O)CC(C)O (stereo not given)    f
22  Cc1cc(N)c2ccccc2[n+]1CCCCCCCCCC[n+]1c(C)cc(N)c2ccccc21    t
23        CCN(CC)CCSC(=O)C(c1ccccc1)c1ccccc1    f
24             Nc1ccc(S(=O)(=O)Nc2ccccc2)cc1    f
